Every entry's value here was drawn from ChEMBL document CHEMBL1275399.

Known Vd of a selection of compounds
# ASSAY_EXPLANATION: Volume of distribution in Sprague-Dawley rat at 10 mg/kg, po and 10 mg/kg iv
# Assay type: ADME, organism-based
# DETAILS: in vivo

Example entries begin here.
SMILES_STRUCTURE	EXPERIMENTAL_ENDPOINT	RESULT
CCN(CC)CCN1CCc2[nH]c(/C=C3\C(=O)Nc4ccc(F)cc43)c(C)c2C1=O	Vd	97.4 L/kg
CCN(CC)CCN1CCCc2[nH]c(/C=C3\C(=O)Nc4ccc(F)cc43)c(C)c2C1=O	Vd	18.8 L/kg

# ---- query compound ----
Return reported Vd; argument: Cc1c(/C=C2\C(=O)Nc3ccc(F)cc32)[nH]c2c1C(=O)N(C[C@H](O)CN1CCOCC1)CC2
4.13 L/kg
